Target: rat liver mitochondrial low Km ALDH (Rattus norvegicus)
Construct: differential centrifugation carried out to isolate the mitochondrial faction; from tissue; host or cells: liver mitochondria of male Sprague-Dawley derived rats
Sequence (P11884 20-519): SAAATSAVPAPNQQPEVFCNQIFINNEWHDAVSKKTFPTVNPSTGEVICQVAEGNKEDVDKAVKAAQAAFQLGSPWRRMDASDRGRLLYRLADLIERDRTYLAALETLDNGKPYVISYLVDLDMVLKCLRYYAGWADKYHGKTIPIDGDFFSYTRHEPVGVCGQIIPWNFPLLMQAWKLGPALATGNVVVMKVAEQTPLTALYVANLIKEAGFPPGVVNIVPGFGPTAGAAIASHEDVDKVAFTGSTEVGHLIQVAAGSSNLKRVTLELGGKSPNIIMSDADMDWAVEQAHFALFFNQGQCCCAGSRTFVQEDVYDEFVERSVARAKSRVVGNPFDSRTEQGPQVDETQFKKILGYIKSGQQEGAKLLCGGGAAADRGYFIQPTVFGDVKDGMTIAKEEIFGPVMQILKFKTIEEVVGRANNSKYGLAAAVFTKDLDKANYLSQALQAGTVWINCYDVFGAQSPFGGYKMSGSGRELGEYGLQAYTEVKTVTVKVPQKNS
Assay: In vitro inhibition of rat liver mitochondrial low Km aldehyde dehydrogenase (isolated mitochondria)
Assay type: biochemical
Conditions: one hour incubation, 2 mg mitochondrial protein; read-out: concentration required for 50% inhibition
recorded-metric: IC50

Tested on rat liver mitochondrial low Km ALDH (Rattus norvegicus), the item CCN(CC)C(=S)[S+](C)[O-] (stereo not shown) showed IC50 equal to ~15 µM

Entry source: patent US20050037975A1
